target: UniProt Q92918; experiment: HPK1 IC50 Assay (TR-FRET peptide phosphorylation); assay type: biochemical; details: 0.15 nM HPK1, 10 μM ATP, 1 μM STK S1 peptide substrate; geometric mean
recorded-endpoint: IC50 (nM)
Give your result in nM as a bare value.

See these solved cases before continuing.
* Cc1c(C(=O)NCC(F)F)cc(Nc2nc(-c3cc4c(nc3F)C(C)(C)C(=O)N4[C@H]3C[C@@](C)(N4CCCCC4)C3)cc3ncn(C(C)C)c23)c(F)c1F | 0.07
* CC(C)n1cnc2cc(-c3ccc4c(c3)N([C@H]3C[C@@](C)(N5CCCCC5)C3)C(=O)C4(C)C)nc(Nc3cc(C(=O)NCC(F)F)c(Cl)c(F)c3F)c21 | 0.08
* CCNC(=O)c1cc(Nc2nc(-c3cnc4c(c3)N([C@H]3C[C@@](C)(N5CCCCC5)C3)C(=O)C4(C)C)cc3ncn(C(C)C)c23)c(F)c(F)c1F | 0.2
* CC(C)n1cnc2cc(-c3cnc4c(c3)N([C@]3(C)C[C@H](N5CCCCC5)C3)C(=O)C4(C)C)nc(Nc3cc(C(=O)NC4(C(F)F)CC4)c(Cl)c(F)c3F)c21 | 0.2

In the following, a different compound is considered.
Q. Given the compound Cc1cc(F)c(Nc2nc(-c3ccc4c(c3)N([C@H]3C[C@@](C)(N5CCCCC5)C3)C(=O)C4(C)C)cc3ncn(C(C)C)c23)cc1C(=O)NCC(F)F , what is its reported IC50?
A. 0.06

* * *

target: human HPK1 (MAP4K1) (Homo sapiens (Human), UniProt Q92918); assay: HPK1 IC50 Assay (TR-FRET peptide phosphorylation); format: biochemical; conditions: recombinant HPK1 kinase domain 0.15 nM, 10 μM ATP, 1 μM STK S1 peptide; geometric mean of multiple experiments
Sequence (Q92918 17-274): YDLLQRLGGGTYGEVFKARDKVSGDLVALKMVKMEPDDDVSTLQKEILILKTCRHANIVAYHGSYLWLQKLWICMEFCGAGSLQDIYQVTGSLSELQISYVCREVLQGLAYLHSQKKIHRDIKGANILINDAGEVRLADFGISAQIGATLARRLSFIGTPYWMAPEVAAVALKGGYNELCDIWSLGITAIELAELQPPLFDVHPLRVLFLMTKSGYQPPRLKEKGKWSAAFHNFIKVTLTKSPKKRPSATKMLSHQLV
recorded-endpoint: IC50 (nM)
Give your result in nM as a bare value.

See these solved cases before continuing.
• CC(C)n1cnc2cc(-c3cnc4c(c3)N([C@H]3C[C@@](C)(N5CCCCC5)C3)C(=O)C4(C)C)nc(Nc3cc(C(=O)NC4CC4)c(Cl)c(F)c3F)c21 = 0.06
• CC(C)n1cnc2cc(-c3cnc4c(c3)N([C@H]3C[C@@](C)(N5CCC6CC6C5)C3)C(=O)C4(C)C)nc(Nc3cc(C(=O)NC4(C(F)F)CC4)c(Cl)c(F)c3F)c21 (stereo partly drawn) [Example 225] = 0.08

Q. Given the compound Cc1c(C(=O)NC2(C(F)F)CC2)cc(Nc2nc(-c3cnc4c(c3)N([C@H]3C[C@@](C)(N5CCC(F)C6(CC6)C5)C3)C(=O)C4(C)C)cc3ncn(C(C)C)c23)c(F)c1F (stereo partly drawn) , what is its reported IC50?
A. 0.2

* * *

Target: human HPK1 (MAP4K1) (Homo sapiens (Human))
Experiment: HPK1 IC50 Assay (TR-FRET peptide phosphorylation)
Assay type: biochemical
Details: recombinant HPK1 kinase domain 0.15 nM, 10 μM ATP, 1 μM STK S1 peptide; geometric mean of multiple experiments
Protocol: The enzymatic activity of human HPK1 (MAP4K1) was monitored in a biochemical assay in the presence or absence of compounds and using a synthetic peptide substrate. An increase in phosphorylation of the peptide by HPK1 was indicative of its kinase activity. […] Data in Table 1 were normalized based on positive (staurosporine) and negative (DMSO) controls. […] IC50 values from multiple experiments were averaged by geometric mean and the standard deviation was calculated.
recorded-endpoint: pIC50
The value called pIC50 is obtained by taking minus log10 of the concentration in mol/L.

* COCCNC(=O)c1cc(Nc2nc(-c3ccc4c(c3)N([C@H]3C[C@@H](N5CCCCC5)C3)C(=O)C43CCN(C(C)=O)CC3)cc3ncn(C(C)C)c23)ccc1C | 9.70
* Cc1c(C(=O)NC2(C(F)F)CC2)cc(Nc2nc(-c3cnc4c(c3)N([C@H]3C[C@@](C)(N5CCCOCC5)C3)C(=O)C4(C)C)cc3ncn(C(C)C)c23)c(F)c1F | 10.05

In the following, a different molecule is considered.
Q. Given the molecule CC(=O)N1CCC2(CC1)C(=O)N([C@H]1C[C@@H](N3C4CCC3COC4)C1)c1cc(-c3cc4ncn(C(C)C)c4c(Nc4cc(C(=O)NC(C)C)c(C)cc4F)n3)ccc12 , what is its reported pIC50?
A. 10.22

* * *

biological target: human HPK1 (MAP4K1) (Homo sapiens (Human), UniProt Q92918); assay: HPK1 IC50 Assay (TR-FRET peptide phosphorylation); type: biochemical; conditions: recombinant HPK1 kinase domain 0.15 nM, 10 μM ATP, 1 μM STK S1 peptide; geometric mean of multiple experiments
Assign a class from recorded IC50; defined classes: low (below 0.09 nM), middle (0.09 nM to below 0.2 nM), high (0.2 nM or more)

The examples below pair each entry with its known result.
- CCn1cnc2cc(-c3ccc4c(c3)N([C@H]3C[C@@H](N5CCCCC5)C3)C(=O)C43CCN(C(C)=O)CC3)nc(Nc3ccc(C)c(C(=O)NC)c3)c21: middle
- CC(C)n1cnc2cc(-c3cnc4c(c3)N([C@H]3C[C@@](C)(N5CCC6CC6C5)C3)C(=O)C4(C)C)nc(Nc3cc(C(=O)NCC(F)F)c(Cl)c(F)c3F)c21 (stereo partly shown): low

Q. Where would CNC(=O)c1cc(Nc2nc(-c3ccc4c(c3)N([C@H]3C[C@@H](N5CCCCC5)C3)C(=O)C43CCN(C(=O)OC)CC3)cc3ncn(C4CC4)c23)ccc1C land among the classes by reported IC50?
A. middle

Q. Where would CC(C)n1cnc2cc(-c3cnc4c(c3)N([C@H]3C[C@@](C)(N5CCCCC5)C3)C(=O)C4(C)C)nc(Nc3cc(C(=O)NC4(C(F)F)CC4)ccc3F)c21 land among the classes by reported IC50?
A. low

Q. Where would CNC(=O)c1cc(Nc2nc(-c3ccc4c(c3)N([C@H]3C[C@@H](N5CCCC(C)(C)C5)C3)C(=O)C4(C)C)cc3ncn(C4CC4)c23)ccc1C land among the classes by reported IC50?
A. low

Q. Where would Cc1c(C(=O)NC2(C(F)F)CC2)cc(Nc2nc(-c3ccc4c(c3)N([C@H]3C[C@@](C)(N5CCCCC5)C3)CC4(C)C)cc3ncn(C(C)C)c23)c(F)c1F land among the classes by reported IC50?
A. high

Q. Where would CNC(=O)c1cc(Nc2nc(-c3ccc4c(c3)N([C@H]3C[C@@H](N5CCCCC5)C3)C(=O)C4(C)C)cc3ncn(C4CC4)c23)ccc1Cl land among the classes by reported IC50?
A. middle

Q. Where would CCn1cnc2cc(-c3ccc4c(c3)N([C@H]3C[C@@H](NC(=O)C(C)(C)C)C3)C(=O)C4(C)C)nc(Nc3ccc(C)c(C(N)=O)c3)c21 land among the classes by reported IC50?
A. high

Q. Where would CNC(=O)c1cc(Nc2nc(-c3ccc4c(c3)N([C@H]3C[C@@H](N5CCCCC5)C3)C(=O)C4(C)C)cc3ncn(C(C)C)c23)ccc1C land among the classes by reported IC50?
A. low

Q. Where would Cc1ccc(Nc2nc(-c3ccc4c(c3)N([C@H]3C[C@@H](N5CCCCC5)C3)C(=O)C4(C)C)cc3ncn(C(C)C)c23)cc1C(=O)N[C@H](C)C(F)F [Example 21B] land among the classes by reported IC50?
A. low

Q. Where would CNC(=O)c1cc(Nc2nc(-c3ccc4c(c3)N([C@H]3C[C@@H](N5CCCCC5)C3)C(=O)C43CCN(C(=O)C45CC(C4)C5)CC3)cc3ncn(C4CC4)c23)ccc1C land among the classes by reported IC50?
A. low

Q. Where would CNC(=O)c1cc(Nc2nc(-c3ccc4c(c3)N([C@H]3C[C@@H](N5CCCCC5)C3)C(=O)C43CCOCC3)cc3ncn(C(C)C)c23)c(F)cc1C land among the classes by reported IC50?
A. middle

Q. Where would CNC(=O)c1cc(Nc2nc(-c3ccc4c(c3)N([C@H]3C[C@@H](N5CCCCC5)C3)C(=O)C43CCOCC3)cc3ncn(C4CC4)c23)ccc1C land among the classes by reported IC50?
A. middle

Q. Where would Cc1ccc(Nc2nc(-c3ccc4c(c3)N([C@H]3C[C@@H](N5CCCCC5)C3)C(=O)C4(F)F)cc3ncn(C4CC4)c23)cc1C(N)=O land among the classes by reported IC50?
A. high

Q. Where would CCn1cnc2cc(-c3ccc4c(c3)N([C@H]3C[C@@H](N5CCCCC5)C3)C(=O)C43CCN(C(C)=O)CC3)nc(Nc3cc(C(=O)NC(C)C)c(C)cc3F)c21 land among the classes by reported IC50?
A. high

* * *

Here, each record is paired with measured pIC50 data.
biological target: human HPK1 (MAP4K1) (Homo sapiens (Human), UniProt Q92918); experiment: HPK1 IC50 Assay (TR-FRET peptide phosphorylation); format: biochemical; conditions: recombinant HPK1 kinase domain 0.15 nM, 10 μM ATP, 1 μM STK S1 peptide; geometric mean of multiple experiments
The value called pIC50 is obtained by taking minus log10 of the concentration in mol/L.

See these solved cases before continuing.
• Cc1cc(F)c(Nc2nc(-c3ccc4c(c3)N([C@H]3C[C@@H](N5C[C@H]6CC[C@@H]5C6)C3)C(=O)C4(C)C)cc3ncn(C(C)C)c23)cc1C(=O)NC1(C(F)F)CC1 = 10.05
• CC(C)n1cnc2cc(-c3cnc4c(c3)N([C@H]3C[C@@](C)(N5CCC6CC6C5)C3)C(=O)C4(C)C)nc(Nc3cc(C(=O)NC4(CF)CC4)c(Cl)c(F)c3F)c21 (stereo partly drawn) [Example 227] = 10.00

In the following, a different molecule is considered.
Q. Given the molecule CCNC(=O)c1cc(Nc2nc(-c3ccc4c(c3)N([C@H]3C[C@@H](N5CCCCC5)C3)C(=O)C43CCN(C(=O)CC)CC3)cc3ncn(C(C)C)c23)c(F)cc1C , what is its reported pIC50?
A. 9.70
